Measured values drawn from ChEMBL document CHEMBL1201862 for this set.

# Test system: NCI/ADR-RES
# assay: NCI tumour cell line growth inhibition, 48 h
Structures can show the parent of a compound that is named as a salt. Activity calls are given as the source filed them. Rule as the data show it: active = GI50 up to about 1.1 µM and inactive = higher.

{"compound": "CCc1ncnc2cc(OCC3CO3)c(OC)cc12 (stereo unspecified)", "GI50": "7.23 µM (inactive)"}
{"compound": "O=CN(CCN1CCCC1)C1CCc2cc(Cl)c(Cl)cc2C1 (stereo unspecified)", "GI50": "19.5 µM (inactive)"}
{"compound": "CN(C)CCNC(=O)c1cccc(NC(=O)c2ccccc2)c1[N+](=O)[O-]", "GI50": "> 100 µM (inactive)"}
{"compound": "COC(=O)C1OC(O[C@H]2CC[C@]3(C)[C@H]4CC=C5[C@@H]6CC(C)(C)CC[C@]6(C(=O)OC)CC[C@@]5(C)[C@]4(C)CC[C@H]3C2(C)C)C(O)C(O)C1O (stereo partly specified)", "GI50": "15.8 µM (inactive)"}
{"compound": "COC(=O)C1(Cc2ccc3c(c2)CCC3)Cc2ccccc2C1", "GI50": "44.1 µM (inactive)"}
{"compound": "CC1=C(C(=O)N[C@@H](CC(C)C)C(=O)O)N2C(=O)[C@@H](NC(=O)C(N)c3ccccc3)[C@H]2SC1 (stereo partly specified)", "GI50": "> 100 µM (inactive)"}
{"compound": "O=c1[nH]c2nc3ccccc3c(=O)n2/c1=C/c1ccc(O)cc1", "GI50": "41.7 µM (inactive)"}
{"compound": "COc1cc(-c2c[nH]c3ccccc23)nc(-c2c[nH]c3ccccc23)n1", "GI50": "8.87 µM (inactive)"}
{"compound": "COc1ccccc1/C=C1\\NC(=S)N(/C=C2\\C(=O)Oc3ccccc3C2=O)C1=O", "GI50": "24.6 µM (inactive)"}
{"compound": "Nc1ccc2cc3ccc(N)cc3nc2c1 [PROFLAVINE SULFATE]", "GI50": "1.58 µM (inactive)"}
{"compound": "COc1cccc(C(=O)Oc2ccc(OS(=O)(=O)c3ccc(C)cc3)cc2)c1C#N", "GI50": "33 µM (inactive)"}

====

# System: UACC-257
# assay: NCI tumour cell line growth inhibition, 48 h
Activity calls are given as the source filed them. No stated cut-off is given here; in the data, active = GI50 up to about 1.1 µM and inactive = higher. Starred links: 1 amine or outer side, 2 acyl side, 3 side chain; linkers in the order of their positions; H or OH if unused. Where a SMILES comes first, the peptide text is derived from it. Non-standard residues stand in square brackets, D forms with d. Residues, ends and D or L forms follow the SMILES beside them. [ ]: non-standard residue; d: D form. The star is where a group is joined. *: point of attachment. X34 = CC(=O)N(C)SCC(N[*:1])C(=O)[*:2]; NMeF = CN[CH](Cc1ccccc1)C(=O)O; NMeV = CN[CH](C(=O)O)C(C)C; Cbz = O=C(OCc1ccccc1)*; Boc = CC(C)(C)OC(=O)*; OBn = c1ccc(CO*)cc1; Bn = c1ccc(C*)cc1; For = O=C*

{"compound": "Cc1nc2ccccc2n1COC(Cn1ccnc1)c1ccc(Cl)cc1Cl (configuration not stated)", "GI50": "31 µM (inactive)"}
{"compound": "c1ccc2c(c1)CCN2CCc1c[nH]c2ccccc12", "GI50": "> 10 µM (inactive)"}
{"compound": "COc1ccc(C2c3c[nH]nc3CC3CCCCC32)cc1 (configuration not stated)", "GI50": "22.4 µM (inactive)"}
{"compound": "O=C(CCc1ccccc1)ON1C(=S)NC(c2ccccc2)(c2ccccc2)C1=S", "GI50": "36.5 µM (inactive)"}
{"compound": "COc1cc(O)ccc1C(=S)SC", "GI50": "51.5 µM (inactive)"}
{"compound": "CCOC(=O)C12CC(C)=C(C)CC1CCCc1ccccc12 (configuration not stated)", "GI50": "17.6 µM (inactive)"}
{"compound": "CC1CC2C3CC(F)C4=CC(=O)C=CC4(C)C3(F)C(O)CC2(C)C1(O)C(=O)COC(=O)C(C)(C)C (configuration not stated)", "GI50": "57.9 µM (inactive)"}
{"compound": "CCCC(=O)Nc1ccc2c(c1)CN1C(=O)c3ccccc3C1=N2", "GI50": "> 100 µM (inactive)"}
{"compound": "CC(=O)c1cccc(NC(=O)C(=O)Nn2c(N)nnc2N)c1", "GI50": "> 100 µM (inactive)"}
{"compound": "C/C(=N\\N=C(\\N)SB(F)F)c1ccc2ccccc2c1", "GI50": "> 100 µM (inactive)"}
{"compound": "CC(=O)O[C@]12CCCC1C1(O)C(O)CCCC12 (some centres not stated)", "GI50": "> 100 µM (inactive)"}
{"compound": "CC(=O)N(C)SCC(NC(=O)C(Cc1ccccc1)NC(=O)OCc1ccccc1)C(=O)NC(Cc1ccccc1)C(=O)NC(Cc1cn(C=O)c2ccccc12)C(=O)NC(CCCCNC(=O)OCc1ccccc1)C(=O)NC(C(=O)NC(CSN(C)C(C)=O)C(=O)NC(C(N)=O)C(C)OCc1ccccc1)C(C)OCc1ccccc1 (configuration not stated) (Cbz-F[X34]FW(For)K(Cbz)T(Bn)[X34]T(Bn)-NH2; configuration not given here)", "GI50": "> 100 µM (inactive)"}
{"compound": "CCOP(=O)(OCC)C(C)(CC)NC1=NC(C(F)(F)F)(C(F)(F)F)NC(=O)N1 (configuration not stated)", "GI50": "> 100 µM (inactive)"}
{"compound": "COC(=O)CNC(=O)CCSc1nnc(COc2ccc(Cl)cc2)n1-c1ccccc1", "GI50": "19.1 µM (inactive)"}
{"compound": "N#C/C(=C\\c1ccc2ccccc2c1)C(=O)c1ccccc1", "GI50": "82 µM (inactive)"}
{"compound": "O=C1C(NCCc2cc(Cl)c(O)c(Cl)c2)=CC(=O)c2[nH]cnc21", "GI50": "26 µM (inactive)"}
{"compound": "COc1ccc([C@@H]2CC(=O)NCCCNCCCCNCCCN2)cc1", "GI50": "> 100 µM (inactive)"}
{"compound": "COCc1cc2c(s1)C(=O)C1=C(C2=O)C2(C=C(Br)C(=O)C(Br)=C2)CCN1", "GI50": "1.55 µM (inactive)"}
{"compound": "O=C1/C(=C/c2ccc3c(c2)OCO3)Sc2scc(-c3ccc(O)c(O)c3)[n+]21", "GI50": "3.6 µM (inactive)"}
{"compound": "COC(=O)C1=CC[C@@H]2C(C(=O)O)=CO[C@@H](OC3OC(CO)C(O)C(O)C3O)[C@H]12 (some centres not stated)", "GI50": "> 300 µM (inactive)"}
{"compound": "NCCNC(=O)CN(CC(=O)O)C1CCCCC1N(CC(=O)O)CC(=O)O (configuration not stated)", "GI50": "> 100 µM (inactive)"}
{"compound": "C[Si](C)(C)CCOCN(C(=O)C1=CCC2(CC1)OCCO2)c1ccccc1I", "GI50": "20.9 µM (inactive)"}
{"compound": "COc1ccc(N2C(=O)C3ON(C(C(N)=O)c4ccccc4)C(c4ccc(-c5ccccc5)cc4)C3C2=O)cc1 (configuration not stated)", "GI50": "> 50 µM (inactive)"}
{"compound": "CSc1sc(=S)sc1SC", "GI50": "> 100 µM (inactive)"}
{"compound": "CC(=O)/C=C(/C=N/O)c1ccccc1", "GI50": "> 100 µM (inactive)"}
{"compound": "Nc1c(-c2cccc3ccccc23)c2ccc([N+](=O)[O-])cc2c(=O)n1-c1nc2ccccc2s1", "GI50": "3.41 µM (inactive)"}
{"compound": "O=C(O)CN(c1ccccc1)S(=O)(=O)c1cccc([N+](=O)[O-])c1", "GI50": "> 100 µM (inactive)"}
{"compound": "O=P(CN1CCOCC1)(c1ccccc1)c1ccccc1", "GI50": "> 100 µM (inactive)"}
{"compound": "CC(C)C(N)(C(=O)O)c1ccccc1 (configuration not stated)", "GI50": "> 100 µM (inactive)"}
{"compound": "COC(=O)C(CCC1CC(OC)N(C(=O)OCc2ccccc2)C1)/N=C/c1ccccc1 (configuration not stated)", "GI50": "31.2 µM (inactive)"}
{"compound": "COc1ccc(N2C(=O)/C(=C/c3ccc(N(CCC#N)CCC#N)cc3)N=C2c2ccccc2)cc1", "GI50": "> 100 µM (inactive)"}
{"compound": "CC(C)C(NC(=O)OC(C)(C)C)C(=O)N(C)C(Cc1ccccc1)C(=O)N(C)C(C(=O)N(C)C(C(=O)OCc1ccccc1)C(C)C)C(C)C (configuration not stated) (Boc-V[NMeF][NMeV][NMeV]-OBn; configuration not given here)", "GI50": "39.6 µM (inactive)"}
